Reference source: PubChem BioAssay (NCI)

tested on: A498 renal; assay: NCI tumour cell line growth inhibition, 48 h
Here, each record is paired with measured GI50 data.
ASSAY METRIC: GI50

>  <MOLECULE>
COc1ccc(/C=C\c2cc(OC)c(OC)c(OC)c2)cc1OCC(=O)Nc1nc2ccccc2s1

>  <SYSTEM TESTED>
A498 renal

>  <READING>
0.346 µM

$$$$
>  <MOLECULE>
C=C(C)[C@@H]1CC[C@]2(C(=O)O)CC[C@]3(C)[C@H](CC[C@@H]4[C@@]5(C)C/C(=C/c6cccc(I)c6)C(=O)C(C)(C)[C@@H]5CC[C@]43C)[C@@H]12

>  <SYSTEM TESTED>
A498 renal

>  <READING>
2.1 µM

$$$$
>  <MOLECULE>
O=C1CC(c2ccsc2)c2snc(-c3ccc(Cl)cc3)c2N1 (stereo not drawn)

>  <SYSTEM TESTED>
A498 renal

>  <READING>
1.09 µM

$$$$
>  <MOLECULE>
Nc1nccc2c1ccn2-c1cccc(NC(=O)c2ccc(N3CCOCC3)c(C(F)(F)F)c2)c1

>  <SYSTEM TESTED>
A498 renal

>  <READING>
0.304 µM

$$$$
>  <MOLECULE>
O=C(c1ccco1)c1nc2cc(C(F)(F)F)ccc2[n+]([O-])c1C(F)(F)F

>  <SYSTEM TESTED>
A498 renal

>  <READING>
39.3 µM

$$$$
>  <MOLECULE>
O=C1/C(=C/c2ccc(Cl)cc2)CN(C(=O)CCN2CCC(=NO)CC2)C/C1=C\c1ccc(Cl)cc1

>  <SYSTEM TESTED>
A498 renal

>  <READING>
1.15 µM

$$$$
>  <MOLECULE>
O=C(NO)c1ccc(Cn2c(=O)n(-c3ccccc3)c(=O)c3ccccc32)cc1

>  <SYSTEM TESTED>
A498 renal

>  <READING>
0.418 µM

$$$$
>  <MOLECULE>
O=C(Cn1c(C(=O)c2ccc(Cl)cc2)nc(-c2ccccc2)c1-c1ccccc1)c1ccc(Cl)cc1

>  <SYSTEM TESTED>
A498 renal

>  <READING>
> 100 µM

$$$$
